Hey, just so you know, these numbers are from PubChem BioAssay.

assay: small-molecule microarray binders of probe aCHRDL2, primary screen, biochemical, biotinylated probe, 635/667 nm fluorescence (AID 1100); settings: higher = more signal
The entries below come with measured composite z-score values attached.

- Molecule: "CC(CCN1CCc2nc(-c3ccccc3)c(-c3ccccc3)cc2C1)=NOC[C@@H](C)[C@H](OCc1ccccc1)C(C)C"
  composite z-score: 0.213
- Molecule: "CC(=O)OC[C@H]1O[C@H](CC=NOC[C@@H](C)[C@H](OCc2ccccc2)C(C)C)C=C[C@@H]1OC(C)=O"
  composite z-score: -0.478
- Molecule: "CCCCC(=C=CC[C@H](O)c1ccccc1OCCO)C[C@H](O)COCc1ccccc1"
  composite z-score: 0.309
- Molecule: "CC(C)CON=C1C[C@@H](O)[C@@H](O)[C@@H]2[C@@H]3C(=O)N([C@@H](C)c4ccccc4)C(=O)[C@@H]3CC[C@H]12"
  composite z-score: -0.565
- Molecule: "c1ccc(C2NCCc3c2[nH]c2ccccc32)cc1 (stereo not given)"
  composite z-score: 0.412
- Molecule: "O=C1[C@H]2[C@H]3[C@H](O)[C@H](O)CC(=NOCc4ccccc4)[C@H]3CC[C@H]2C(=O)N1C[C@@H]1CCCO1"
  composite z-score: -0.418
- Molecule: "N#Cc1ccc(NN2C(C(O)c3cc(C(F)(F)F)cc(C(F)(F)F)c3)C=CC3C(=O)N(c4ccccc4)C(=O)C32)cc1 (stereo not given)"
  composite z-score: 1.04
- Molecule: "O=C1[C@H]2[C@H]3[C@H](O)[C@H](O)CC(=NOCc4ccccc4)[C@@H]3CC[C@H]2C(=O)N1C1CCCCC1"
  composite z-score: 0.218
- Molecule: "O=C(NN=C1C[C@@H](O)[C@@H](O)[C@@H]2[C@@H]3C(=O)N(c4cccc(Oc5ccccc5)c4)C(=O)[C@@H]3CC[C@H]12)OCc1ccccc1"
  composite z-score: 0.408
- Molecule: "CCCCCN1CC=CC23O[C@@H]4C=CCOC(=O)[C@@H]4[C@H]2C(=O)N(CCCCCCO)[C@@H]3C1=O (stereo not given in full)"
  composite z-score: 0.734
- Molecule: "C=CC[C@@H]1C=C[C@H](ON=Cc2ccc(C(=O)N3[C@H](c4ccc(C)cc4)[C@@H](C)CC[C@H]3C(=O)OC)cc2)[C@@H](CO)O1"
  composite z-score: -0.422
- Molecule: "CCCCc1nc2c(c3c1C[C@H](C)OC3)CN(CCC(C)C)CC2"
  composite z-score: -0.47
- Molecule: "CO[C@@H]1COC(=O)CC=C[C@@H](C)COC(=O)[C@H](COCc2ccccc2)NC(=O)CC=C[C@H]1C"
  composite z-score: -1.31
- Molecule: "COC(=O)[C@@H]1CC[C@H](C)[C@@H](c2ccc(C)cc2)N1C(=O)c1ccc(C=NOC(C)CN2CCCCc3nc(C)c(C)cc32)cc1 (stereo not given in full)"
  composite z-score: 0.174
- Molecule: "COc1ccc([Si](C)(C)[C@H]2[C@H](CCO)O[C@@]3(C(=O)N(Cc4cccc(NC(=O)[C@H](C)O)c4)c4ccccc43)[C@@H]2C)cc1"
  composite z-score: -0.026

----------
assay: basal MM1S mitochondrial membrane potential changes, profiling panel, cell-based, JC-1 fluorescence, 24 h, 100 nL compound (AID 1170); settings: higher = more signal; further: test concentration not given here
Mark f for z-score values under -0.3, and t for everything at or above.

- Compound: "CC(=O)OC[C@H]1O[C@@H](ON=C[C@@H](C)[C@H](OCc2ccccc2)C(C)C)[C@H](OC(C)=O)[C@@H](OC(C)=O)[C@@H]1OC(C)=O"
  Group: "f"
- Compound: "[N-]=[N+]=NCc1ccccc1[C@@H]1OC(c2ccc(OCCCO)cc2)=N[C@]1(Cc1ccccc1)C(=O)N1CCOCC1"
  Group: "f"
- Compound: "COc1ccc([Si](C)(C)[C@H]2[C@H](CCO)O[C@@]3(C(=O)N(Cc4cccc(NC(=O)[C@H](C)O)c4)c4ccccc43)[C@@H]2C)cc1"
  Group: "f"
- Compound: "C=C(/C(=C/C[C@H](OC(C)=O)c1ccc(OCCO)cc1)c1cnc2ccccc2c1)C(C)C"
  Group: "t"
- Compound: "COC(=O)[C@H](C)NC(=O)CCC1CC(OC(=O)NCCc2ccc(F)cc2)CC2(CCCC(COC(=O)NCCc3ccc(Cl)cc3)O2)O1 (stereo partly specified)"
  Group: "f"
- Compound: "CC(CCC(=O)OC[C@H]1O[C@H](C#Cc2ccccc2)C=C[C@@H]1Oc1ccc(C)cc1)=NO[C@@H](C)c1cn([C@H](CO)Cc2ccccc2)nn1"
  Group: "t"
- Compound: "C=COC[C@H]1CN2[C@@H](CC[C@@H](C)[C@@H]2c2ccc(Br)cc2)C(=O)O1"
  Group: "t"
- Compound: "CC(C)NC(=O)[C@@]1(C)c2ccccc2C(=O)N(Cc2cc(F)cc(C(F)(F)F)c2)[C@H]1c1ccc(CO)cc1"
  Group: "f"
- Compound: "Cc1ccc(S[C@]2(C(=O)O)CC(=O)N(Cc3ccccc3)[C@@H]2c2ccc(CO)cc2I)cc1"
  Group: "f"
- Compound: "C#CCCCON=C1C[C@@H](O)[C@@H](O)[C@@H]2[C@@H]3C(=O)N(c4cccc(Oc5ccccc5)c4)C(=O)[C@@H]3CC[C@@H]12"
  Group: "t"
- Compound: "COc1ccccc1CN1C(=O)c2ccccc2[C@@]2(Cc3ccccc3N(C(C)C)C2=O)[C@@H]1c1ccc(CO)cc1"
  Group: "t"
